Data provenance: ChEMBL document CHEMBL1201862

Listing of entries alongside the reported GI50.
System: SN12C
PROTOCOL TEXT: NCI tumour cell line growth inhibition, 48 h
The source made the active and inactive calls. Rule as the data show it: active = GI50 up to about 1.1 µM and inactive = higher.

-- ask Provide measured GI50 value, entry: `CCNC(=S)N/N=C1\C(=O)Nc2ccc([N+](=O)[O-])cc21`
-- reply 31.7 µM (inactive)

-- ask Supply reported GI50 belonging to this molecule: `NCCSc1nc2ccccc2s1`
-- reply 38.7 µM (inactive)

* * *

Tested on: SK-MEL-5
PROTOCOL TEXT: NCI tumour cell line growth inhibition, 48 h
The source made the active and inactive calls. No stated cut-off is given here; in the data, active = GI50 up to about 1.1 µM and inactive = higher.
METRIC NAME: GI50

Some entries whose results are on file:
NCCSc1nc2ccccc2s1
52.7 µM (inactive)
Cc1cccc2c(=O)c([Se]c3coc4c(C)cccc4c3=O)coc12
18.2 µM (inactive)
COC(=O)C1=C(O)C(O)=C(C(=O)OC)C1
> 100 µM (inactive)
Nc1ccc(/C=C/c2ccc3cccnc3c2)cc1
> 100 µM (inactive)
COc1ccc(C(C)NNC(=O)c2cc[n+]([BH2-]C#N)cc2)c(OC)c1 (stereo unspecified)
> 100 µM (inactive)

-- ask Provide GI50 value for the following molecule: O=C1c2ccccc2C(=O)N1CCSCC(CO)SCCN1C(=O)c2ccccc2C1=O (stereo unspecified)
-- reply > 100 µM (inactive)

-- ask Tell me GI50 reported for `CC(C)CCC/C(CBr)=C(\Cl)CCl`
-- reply 1.95 µM (inactive)

-- ask Look up GI50 of `C#C[C@]1(O)CC[C@H]2[C@@H]3CCC4=C/C(=N/NC(=O)c5cccc6cc7ccccc7nc56)CC[C@@H]4[C@H]3CC[C@@]21CC` and report it.
-- reply 21.9 µM (inactive)
